system: EKVX NSCLC; experiment: NCI tumour cell line growth inhibition, 48 h
Task for the reader: assign each of the following compounds its reported TGI.

Query: Reported TGI for NC(N)=N/N=C/c1cccc(Cl)c1Cl : what is it?
Reply: 24.2 µM

Query: Consider the compound shown here: CCOC(=O)c1nc2ccc(Cl)cc2c2c1CCO2 What is its recorded TGI?
Reply: > 100 µM

Query: So what does the record say about TGI for CCCC(=O)NC(c1ccc2c(c1)OCO2)c1ccc2cccnc2c1O (stereo unspecified) ?
Reply: 21.4 µM

Query: Requested field: TGI. Item: O=C(O)c1ccccn1
Reply: > 100 µM

Query: Consider the compound Cc1cc(=O)[nH]c(NN2C(Cl)C(=O)C2c2cccc([N+](=O)[O-])c2)n1 (stereo unspecified) and give its measured TGI.
Reply: > 100 µM

Query: Give the measured TGI of CCCCCCCCCCCCOC1C(C(COC2OC(C(O)CN3CCCCC3)C3OC(C)(C)OC23)NC(=O)Nc2ccccc2)OC2OC(C)(C)OC21 (stereo unspecified) .
Reply: 30.2 µM
